// provenance: PubChem BioAssay AID434987

Quick list: IC90 per entry.
- Test system: M. tuberculosis H37Rv growth inhibition with meropenem
- protocol: dose response, H37Rv, with and without meropenem (AID 434987);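 also: growth over 7 days at 37 °C before Alamar Blue read on day 9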
- conditions.used: measured here: IC90 with meropenem

Known IC90 results, listed for orientation:
# compound, system.tested, readout.kind, result.value
data = [
    ("CCOC(=O)c1ccc(NC(=O)Cc2coc3cc4c(cc23)CCC4)cc1", "M. tuberculosis H37Rv growth inhibition with meropenem", "IC90", "> 100 µM"),
    ("CN(C)c1ccc(/C=N/NC(=O)c2cc(-c3ccc4c(c3)OCO4)n[nH]2)cc1", "M. tuberculosis H37Rv growth inhibition with meropenem", "IC90", "> 100 µM"),
    ("CCOC(=O)COc1nc(-c2ccc(Cl)cc2)cc(-c2ccco2)c1C#N", "M. tuberculosis H37Rv growth inhibition with meropenem", "IC90", "> 100 µM"),
    ("O=C(OCC(=O)c1c[nH]c2ccccc12)c1cccc([N+](=O)[O-])c1", "M. tuberculosis H37Rv growth inhibition with meropenem", "IC90", "> 100 µM"),
    ("O=C1N/C(=N\\N=C\\c2ccc3ncccc3c2)SC1Cc1ccc(SC(F)F)cc1 (stereo not given)", "M. tuberculosis H37Rv growth inhibition with meropenem", "IC90", "> 100 µM"),
    ("Cc1cc(C(=O)Nc2nnc(-c3ccccc3)s2)no1", "M. tuberculosis H37Rv growth inhibition with meropenem", "IC90", "> 100 µM"),
    ("COc1ccc(NC(C)C(=O)N/N=C/c2ccc([N+](=O)[O-])s2)cc1 (stereo not given)", "M. tuberculosis H37Rv growth inhibition with meropenem", "IC90", "4.79 µM"),
    ("Cc1ccc(NC(=S)Nc2ncccc2C)c(C)c1", "M. tuberculosis H37Rv growth inhibition with meropenem", "IC90", "> 100 µM"),
    ("CS(=O)(=O)N(Cc1ccccc1)c1ccc(C(=O)N2CCN(c3cccc(Cl)c3)CC2)cc1", "M. tuberculosis H37Rv growth inhibition with meropenem", "IC90", "> 100 µM"),
]

Kindly consider the entry below.
**Query** Reported IC90 for M. tuberculosis H37Rv growth inhibition with meropenem, given "COC(=O)c1sc(-c2ccc(Cl)cc2)cc1NC(=O)COCC(=O)O" ?
**Result** 44.8 µM

====

- Test system: M. tuberculosis H37Rv growth inhibition with meropenem
- protocol: dose response, H37Rv, with and without meropenem (AID 434987);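 also: growth over 7 days at 37 °C before Alamar Blue read on day 9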
- conditions.used: measured here: IC90 with meropenem
readout.kind: IC90

Known IC90 results, listed for orientation:
# compound, system.tested, IC90
measured = [
    ("COCCNC(=S)N/N=C(\\C)c1cccc(OC)c1", "M. tuberculosis H37Rv growth inhibition with meropenem", "> 100 µM"),
    ("Cc1[nH]n(-c2ccccc2)c(=O)c1/C=N/NC(=O)c1ccoc1C", "M. tuberculosis H37Rv growth inhibition with meropenem", "3.01 µM"),
    ("CC(=O)c1sc(N/N=C\\c2ccc(N(C)C)cc2)nc1C", "M. tuberculosis H37Rv growth inhibition with meropenem", "> 100 µM"),
    ("O=C(NC(=S)N1CCOCC1)c1ccc([N+](=O)[O-])cc1", "M. tuberculosis H37Rv growth inhibition with meropenem", "> 100 µM"),
]

**Query** Reported IC90 for M. tuberculosis H37Rv growth inhibition with meropenem, given "O=C(CSc1nnc(-c2ccncc2)o1)c1cccc([N+](=O)[O-])c1" ?
**Result** 45.4 µM

**Query** Query "CCOC(=O)c1c(C)oc2c1c(CN1CCN(C(=O)OCC)CC1)c(O)c1ccccc12" next
**Result** > 100 µM

**Query** Query "CCCCOc1ccc(C(=O)Oc2cccnc2)cc1" next
**Result** > 100 µM

**Query** Query "Cc1ccc(CNC(=O)c2cn(C)c3ccc(S(=O)(=O)N4CCOCC4)cc3c2=O)cc1" next
**Result** > 50 µM

**Query** Query "CC(=O)c1ccc(OCCCC(=O)OCC(=O)N2CCN(c3ccccc3)CC2)cc1" next
**Result** > 100 µM

**Query** Query "COc1cc(/C=N/NC(=S)Nc2cccc(S(=O)(=O)N(C)C)c2)cc(OC)c1O" next
**Result** > 100 µM

**Query** Query "CN(C(=O)Nc1ccc(Cl)cc1)n1cnc2ccccc2c1=O" next
**Result** 48.6 µM

====

- Test system: M. tuberculosis H37Rv growth inhibition with meropenem
- protocol: dose response, H37Rv, with and without meropenem (AID 434987);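 also: growth over 7 days at 37 °C before Alamar Blue read on day 9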
- conditions.used: measured here: IC90 with meropenem
readout.kind: IC90

Known IC90 results, listed for orientation:
# compound, IC90
records = [
    ("COc1ccc(-c2csc(NC(=O)c3c(C)noc3C)n2)cc1", "> 100 µM"),
    ("CCc1cc(C(N)=S)ccn1", "12.8 µM"),
    ("O=C(N/N=C/c1cccc(NC(=O)c2ccc(Cl)cc2)c1)c1cccc(O)c1", "> 100 µM"),
]

**Query** Entry "COc1ccccc1NC(=O)c1cnc(Nc2ccccc2OC)c2ccccc12" has what IC90?
**Result** > 100 µM

**Query** Query "Cc1nnc(SCc2cccc(Cl)c2)n(N)c1=O" next
**Result** 10.1 µM

**Query** Query "COc1cccc(/C=N/Nc2nc(N3CCCC3)nc(N3CCCC3)n2)c1O" next
**Result** 36.1 µM

**Query** Query "CSc1nnc(C)c(/C=C/Nc2ccc(Cl)cc2)n1" next
**Result** > 100 µM

**Query** Query "NC(=S)N/N=C/c1ccc([N+](=O)[O-])cc1" next
**Result** > 100 µM

**Query** Query "O=C(c1cccc(C(=O)N2CCN(c3ccc(F)cc3)CC2)c1)N1CCN(c2ccc(F)cc2)CC1" next
**Result** > 100 µM

**Query** Query "Nc1ccc(C(=O)O)c(O)c1" next
**Result** 1.88 µM

**Query** Query "CCOc1ccccc1C(=O)Nc1cccc(-c2ccc3nncn3n2)c1" next
**Result** > 100 µM

**Query** Query "Nc1c2c(nc3sc4c(c13)CCCC4)-c1ccccc1CC2" next
**Result** > 100 µM

**Query** Query "O=C(CSc1nnc(COc2ccccc2)o1)N1CCN(c2ccccc2)CC1" next
**Result** > 100 µM

**Query** Query "CC(C)=CCC/C(C)=C/C=N/NC(=O)c1ccc([N+](=O)[O-])cc1" next
**Result** > 100 µM

**Query** Query "CN(C)c1ccc(/C=C/c2nc3ccccc3s2)cc1" next
**Result** > 100 µM

**Query** Query "Cn1c(SCC(=O)OC2CCCCC2)nnc1-c1ccc2c(c1)OCO2" next
**Result** 34.9 µM

**Query** Query "O=C(CSc1ncn[nH]1)Nc1cccc2ccccc12" next
**Result** 65 µM

**Query** Query "COc1cc(NC(=O)c2ccc(Cl)cc2)c(OC)cc1NC(=O)CN1CCOCC1" next
**Result** > 100 µM

**Query** Query "Cc1ccc(NC(=O)CCS(=O)(=O)c2cccc3nonc23)cc1" next
**Result** > 100 µM

**Query** Query "CC(C)(C)c1nnc2sc(SCC(=O)c3cccs3)nn2c1=O" next
**Result** > 100 µM

**Query** Query "Cc1cccc2c(C(=O)n3cccn3)cc(-c3ccccc3Cl)nc12" next
**Result** 26.8 µM

**Query** Query "Cc1nc(S/C(=C\c2ccc(OCc3ccccc3Cl)cc2)C(=O)O)n[nH]1" next
**Result** > 100 µM

====

- Tested on: M. tuberculosis H37Rv growth inhibition with meropenem
- protocol: dose response, H37Rv, with and without meropenem (AID 434987);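 also: growth over 7 days at 37 °C before Alamar Blue read on day 9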
- conditions.used: M. tuberculosis H37Rv growth inhibition; measured here: IC50 without meropenem
Quick list: IC50 per entry.
Answer with a number only, understood to be in µM.

Known IC50 results, listed for orientation:
# compound, system.tested, value.unit, result.value
rows = [
    ("O=C(Oc1c(-c2ccccc2)c(=O)n2c3c(cccc13)CC2)c1cccc([N+](=O)[O-])c1", "M. tuberculosis H37Rv growth inhibition with meropenem", "µM", 30.5),
    ("COCCCn1c(=O)/c(=C\\c2cccc(OC)c2OC)s/c1=C(/C#N)C(=O)Nc1ccc(C(=O)O)cc1", "M. tuberculosis H37Rv growth inhibition with meropenem", "µM", 14.6),
]

**Query** Entry Cc1ccc(C)c(NC(=O)C2Cc3ccccc3CN2C(=O)OCc2ccccc2)c1 (configuration not stated) has what IC50?
**Result** 91.3

**Query** Query "CCOC(=O)c1c(C)[nH]c(C)c1C(=O)COC(=O)/C=C/c1ccc(OC(F)F)cc1" next
**Result** 98.3

====

- Tested on: M. tuberculosis H37Rv growth inhibition with meropenem
- protocol: dose response, H37Rv, with and without meropenem (AID 434987);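 also: growth over 7 days at 37 °C before Alamar Blue read on day 9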
- conditions.used: measured here: IC90 with meropenem
readout.kind: IC90

Known IC90 results, listed for orientation:
# compound, IC90
records = [
    ("Cc1ccc(C)c(S(=O)(=O)N2CCN(CC(=O)NC(C)c3ccccc3)CC2)c1 (configuration not stated)", "> 100 µM"),
    ("CCOC(=O)c1cnc2cc(-c3ccc(C(C)(C)C)cc3)nn2c1N", "5.74 µM"),
]

**Query** Entry "O=C(O)CCCN1C(=O)/C(=C\c2ccc(-c3nc4ccccc4s3)o2)SC1=S" has what IC90?
**Result** > 100 µM

**Query** Query "Cc1cccnc1NC(=S)NC(=O)c1cncc(Br)c1" next
**Result** > 100 µM
